Below: compounds with pIC50 recorded for Ephrin type-A receptor 2 (Homo sapiens, UniProt P29317) in separate published works.
pIC50: −log10 of the molar value.

Answered cases to consult:
compound	pIC50
COCCN1CCC(Nc2ccc3c(c2)/C(=C(\c2ccccc2)c2nc4cc(Cl)ccc4[nH]2)C(=O)N3)CC1	5.30 to 6.30
CC(NC(=O)c1ccc(C2CC2)c(-c2ccc3nc(Nc4cnn(C5CC5)c4)ncc3c2)c1)c1cccc(C(F)(F)F)c1 (stereo not drawn)	< 6.00
CCN1CCC(Nc2ccc3c(c2)/C(=C(\c2cccc(N)c2)c2nc4ccccc4[nH]2)C(=O)N3)CC1	5.30 to 6.30
COc1cccc(C(=O)c2c[nH]c3ncc(-c4cccc(NC(C)=O)c4)cc23)c1F	≥ 5.00

**Query** Param readout= pIC50; system= Ephrin type-A receptor 2 (Homo sapiens, UniProt P29317); entry= CCN1CCC(Nc2ccc3c(c2)/C(=C(\c2cccc(C(F)(F)F)c2)c2nc(C)c[nH]2)C(=O)N3)CC1 ; returns value.
**Result** 5.30 to 6.30

**Query** Param readout= pIC50; system= Ephrin type-A receptor 2 (Homo sapiens, UniProt P29317); entry= COCCN1CCC(Nc2ccc3c(c2)/C(=C(\c2cccc(OC)c2)c2nc4ccccc4[nH]2)C(=O)N3)CC1 ; returns value.
**Result** 5.30 to 6.30

**Query** Param readout= pIC50; system= Ephrin type-A receptor 2 (Homo sapiens, UniProt P29317); entry= CCN1CCC(Nc2ccc3c(c2)/C(=C(\c2cccc(Cl)c2)c2ncc[nH]2)C(=O)N3)CC1 ; returns value.
**Result** 5.30 to 6.30

**Query** Param readout= pIC50; system= Ephrin type-A receptor 2 (Homo sapiens, UniProt P29317); entry= COCCN1CCC(Nc2ccc3c(c2)/C(=C(\c2ccc(C(F)(F)F)c(F)c2)c2ncc[nH]2)C(=O)N3)CC1 ; returns value.
**Result** 5.30 to 6.30

**Query** Param readout= pIC50; system= Ephrin type-A receptor 2 (Homo sapiens, UniProt P29317); entry= CCN1CCC(Nc2ccc3c(c2)/C(=C(\c2ccc(F)cc2)c2nc(C)c[nH]2)C(=O)N3)CC1 ; returns value.
**Result** 5.30 to 6.30
